protocol_text: Cytotoxicity against human A549 cells after 4 days by Coulter counting method
Assay type: cell-based
Rule: CC50 at 96 h below 80 µM gives 1.0, anything at or above gives 0.0.

Could you please tell me whether CC50 at 96 h recorded for CCOC(=O)[C@H](Cc1ccccc1)NP(=O)(CCOCC(Cn1c(Br)nc2c(=O)[nH]c(N)nc21)OCCP(=O)(N[C@@H](Cc1ccccc1)C(=O)OCC)N[C@@H](Cc1ccccc1)C(=O)OCC)N[C@@H](Cc1ccccc1)C(=O)OCC (some centres not stated) is less than 80 µM?
0.0

----------
protocol_text: Selectivity index, ratio of CC50 for human A549 cells to IC50 for Plasmodium falciparum D6
Assay type: toxicity
setup_conditions: read-out: Ratio CC50/IC50
measurement_type: selectivity ratio
Answer with the value's number alone.

Sample answers from the record:
{"compound": "CCOC(=O)[C@H](Cc1ccccc1)NP(=O)(CCOCC(COCP(=O)(N[C@@H](Cc1ccccc1)C(=O)OCC)N[C@@H](Cc1ccccc1)C(=O)OCC)Cn1cnc2c(=O)[nH]cnc21)N[C@@H](Cc1ccccc1)C(=O)OCC (stereo not given in full)", "measurement_type": "selectivity ratio", "observed_value": 59}
{"compound": "CCOC(=O)[C@H](Cc1ccccc1)NP(=O)(CCOCC(COCP(=O)(N[C@@H](Cc1ccccc1)C(=O)OCC)N[C@@H](Cc1ccccc1)C(=O)OCC)Cn1ccc2c(=O)[nH]c(N)nc21)N[C@@H](Cc1ccccc1)C(=O)OCC (stereo not given in full)", "measurement_type": "selectivity ratio", "observed_value": 59}
{"compound": "CCOC(=O)[C@H](Cc1ccccc1)NP(=O)(CCOCC(COCP(=O)(N[C@@H](Cc1ccccc1)C(=O)OCC)N[C@@H](Cc1ccccc1)C(=O)OCC)Cn1cnc2c(=O)[nH]c(N)nc21)N[C@@H](Cc1ccccc1)C(=O)OCC (stereo not given in full)", "measurement_type": "selectivity ratio", "observed_value": 37}
{"compound": "CCOC(=O)[C@H](Cc1ccccc1)NP(=O)(CCOCC(Cn1cnc2c(=O)[nH]cnc21)OCCP(=O)(N[C@@H](Cc1ccccc1)C(=O)OCC)N[C@@H](Cc1ccccc1)C(=O)OCC)N[C@@H](Cc1ccccc1)C(=O)OCC (stereo not given in full)", "measurement_type": "selectivity ratio", "observed_value": 25}

Reported selectivity ratio, compound CCOC(=O)[C@H](Cc1ccccc1)NP(=O)(CCOCC(COCP(=O)(N[C@@H](Cc1ccccc1)C(=O)OCC)N[C@@H](Cc1ccccc1)C(=O)OCC)Cn1c(Br)nc2c(=O)[nH]c(N)nc21)N[C@@H](Cc1ccccc1)C(=O)OCC (stereo not given in full) : ____
27
